- assay_system: Voltage-dependent L-type calcium channel subunit alpha-1D (Rattus norvegicus) (UniProt P27732)
- Sequence (P27732 whole entry): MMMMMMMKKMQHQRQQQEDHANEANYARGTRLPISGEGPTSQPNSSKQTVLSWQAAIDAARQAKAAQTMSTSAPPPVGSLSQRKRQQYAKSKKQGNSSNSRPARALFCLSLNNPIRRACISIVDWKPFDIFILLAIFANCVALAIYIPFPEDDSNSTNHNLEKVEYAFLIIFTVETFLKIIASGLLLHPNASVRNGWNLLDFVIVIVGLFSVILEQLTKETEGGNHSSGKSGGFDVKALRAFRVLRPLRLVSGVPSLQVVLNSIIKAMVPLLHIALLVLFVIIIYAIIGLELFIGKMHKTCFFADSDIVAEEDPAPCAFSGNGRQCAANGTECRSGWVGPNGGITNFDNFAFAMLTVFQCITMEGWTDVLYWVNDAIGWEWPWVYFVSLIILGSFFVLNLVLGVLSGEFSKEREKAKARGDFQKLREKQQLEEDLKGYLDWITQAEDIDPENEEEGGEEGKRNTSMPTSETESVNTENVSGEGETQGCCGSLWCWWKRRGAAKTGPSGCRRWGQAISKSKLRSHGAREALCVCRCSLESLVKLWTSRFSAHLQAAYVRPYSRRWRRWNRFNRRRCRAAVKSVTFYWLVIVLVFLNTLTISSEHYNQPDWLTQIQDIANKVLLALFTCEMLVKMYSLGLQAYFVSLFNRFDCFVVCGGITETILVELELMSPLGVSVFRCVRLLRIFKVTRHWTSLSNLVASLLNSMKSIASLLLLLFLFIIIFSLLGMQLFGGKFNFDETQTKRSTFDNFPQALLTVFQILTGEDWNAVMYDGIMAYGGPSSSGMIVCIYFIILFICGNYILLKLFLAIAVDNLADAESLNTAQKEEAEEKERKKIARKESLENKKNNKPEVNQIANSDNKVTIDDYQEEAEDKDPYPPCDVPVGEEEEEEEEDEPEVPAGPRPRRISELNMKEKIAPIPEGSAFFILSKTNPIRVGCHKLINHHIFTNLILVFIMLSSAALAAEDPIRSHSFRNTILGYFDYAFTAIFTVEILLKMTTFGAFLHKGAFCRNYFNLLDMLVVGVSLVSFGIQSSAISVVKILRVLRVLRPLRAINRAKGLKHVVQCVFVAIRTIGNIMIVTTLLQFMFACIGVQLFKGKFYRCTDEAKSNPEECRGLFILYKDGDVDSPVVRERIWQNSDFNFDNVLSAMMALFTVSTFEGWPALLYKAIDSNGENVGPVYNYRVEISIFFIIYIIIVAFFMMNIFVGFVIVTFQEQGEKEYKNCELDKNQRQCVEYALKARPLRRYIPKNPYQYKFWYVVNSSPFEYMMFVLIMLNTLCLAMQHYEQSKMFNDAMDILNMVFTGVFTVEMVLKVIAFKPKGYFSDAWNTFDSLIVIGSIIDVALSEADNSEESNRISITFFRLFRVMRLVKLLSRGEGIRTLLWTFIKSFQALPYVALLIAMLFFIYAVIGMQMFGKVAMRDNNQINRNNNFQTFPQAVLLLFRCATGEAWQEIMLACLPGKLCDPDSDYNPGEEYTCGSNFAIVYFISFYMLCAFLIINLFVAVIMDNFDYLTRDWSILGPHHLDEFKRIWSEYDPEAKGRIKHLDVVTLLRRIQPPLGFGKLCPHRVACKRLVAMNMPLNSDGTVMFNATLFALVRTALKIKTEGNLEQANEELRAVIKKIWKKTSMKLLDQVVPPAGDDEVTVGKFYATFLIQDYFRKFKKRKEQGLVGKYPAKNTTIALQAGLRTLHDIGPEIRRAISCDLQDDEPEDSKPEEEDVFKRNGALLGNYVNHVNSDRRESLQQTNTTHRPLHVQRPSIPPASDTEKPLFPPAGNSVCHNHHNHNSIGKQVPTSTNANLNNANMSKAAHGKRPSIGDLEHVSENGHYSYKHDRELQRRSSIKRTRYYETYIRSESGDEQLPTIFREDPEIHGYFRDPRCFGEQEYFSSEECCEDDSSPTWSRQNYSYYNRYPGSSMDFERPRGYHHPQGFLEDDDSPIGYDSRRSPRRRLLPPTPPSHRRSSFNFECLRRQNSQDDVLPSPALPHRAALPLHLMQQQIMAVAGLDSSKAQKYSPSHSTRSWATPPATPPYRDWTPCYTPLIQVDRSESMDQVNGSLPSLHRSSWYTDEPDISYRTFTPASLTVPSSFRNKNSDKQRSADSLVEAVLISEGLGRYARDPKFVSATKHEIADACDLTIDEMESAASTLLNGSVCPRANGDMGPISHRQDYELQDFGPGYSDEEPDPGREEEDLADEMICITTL
- method_description: Antagonist activity at rat Cav1.3 expressed in HEK293 cells assessed as inhibition of voltage pulse-induced calcium current at 200 nM by FLIPR calcium 4 assay
- Type: functional, cell-based
- protocol_conditions: in the assay text read “by whole-cell patch-clamp recording” for “by FLIPR calcium 4 assay”
Would you mind labelling by inhibition? At or over 60% is T, under is F.

- compound: "COC(=O)C1=C(C)NC(C)=C(C(=O)OCC(C)C)C1c1cccc([N+](=O)[O-])c1 (configuration not stated)"
  cat: "T"
- compound: "CCOC(=O)C1=C(C)N=C(C)/C(=C(/O)OCC)C1c1cccs1 (configuration not stated)"
  cat: "F"
- compound: "CCOC(=O)C1=C(C)NC(C)=C(C(=O)OCC)C1c1ccc2ccccc2c1"
  cat: "F"
- compound: "CCOC(=O)C1=C(C)NC(C)=C(C(=O)OCC)C1c1ccsc1"
  cat: "F"
- compound: "CCOC(=O)C1=C(C)NC(C)=C(C(=O)OCC)C1c1cc(C(F)(F)F)cc(C(F)(F)F)c1"
  cat: "F"
- compound: "CCOC(=O)C1=C(C)NC(C)=C(C(=O)OCC)C1c1ccc(Cl)c([N+](=O)[O-])c1"
  cat: "T"
- compound: "CCOC(=O)C1=C(C)NC(C)=C(C(=O)OCC)C1C1CCCCC1"
  cat: "F"
- compound: "CCOC(=O)C1=C(C)NC(C)=C(C(=O)OCC)C1c1csc2ccccc12"
  cat: "F"
- compound: "CCOC(=O)C1=C(C)NC(CC)=C(C(=O)OCC)C1c1cccc([N+](=O)[O-])c1 (configuration not stated)"
  cat: "T"
- compound: "COC(=O)C1=C(C)NC(C)=C(C(=O)OC(C)C)C1c1cccc([N+](=O)[O-])c1 (configuration not stated)"
  cat: "T"
- compound: "CCCC1C(C(=O)OCC)=C(C)NC(C)=C1C(=O)OCC"
  cat: "F"
- compound: "CC1=C(C(=O)OC(C)C)C(c2cccc([N+](=O)[O-])c2)C(C(=O)OC(C)C)=C(C)N1"
  cat: "T"
- compound: "CCOC(=O)C1=C(C)NC(C)=C(C(=O)OCC)C1c1cc([N+](=O)[O-])ccc1Cl"
  cat: "T"
- compound: "CCOC(=O)C1=C(C)NC(C)=C(C(=O)OCC)C1c1ccoc1"
  cat: "F"
- compound: "CCOC(=O)C1=C(C)NC(C)=C(C(=O)OCC)C1c1ccccc1I"
  cat: "T"
- compound: "CCOC(=O)C1=C(C(F)(F)F)NC(C(F)(F)F)=C(C(=O)OCC)C1c1cccc([N+](=O)[O-])c1"
  cat: "F"
- compound: "CCOC(=O)C1=C(C(F)(F)F)NC(C(F)(F)F)=C(C(=O)OCC)C1c1cccc(C(F)(F)F)c1"
  cat: "T"
- compound: "CCOC(=O)C1=C(C)N=C(C)/C(=C(/O)OCC)C1c1ccncc1 (configuration not stated)"
  cat: "F"
- compound: "COC(=O)C1=C(C)NC(C)=C(C(=O)OC(C)(C)C)C1c1cccc([N+](=O)[O-])c1 (configuration not stated) [MEBUDIPINE]"
  cat: "T"
- compound: "CCOC(=O)C1=C(C)NC(C)=C(C(=O)OCC)C1c1cc(Br)cc(Br)c1"
  cat: "T"
- compound: "CCOC(=O)C1=C(C)NC(C)=C(C(=O)OCC)C1c1ccccc1-c1ccccc1"
  cat: "T"
